Test system: premature stop codon
assay.procedure: Premature stop codon readthrough (nonsense suppression), full length protein production by enzyme-linked immunosorbent assay
Type: cell-based
condition.notes: median; enzyme-linked immunosorbent assay; concentration range tested up to 1 mM
Description: Table 1 also provides the median maximum fold increase of the full length protein production over DMSO-treated samples as also determined by enzyme-linked immunosorbent assay within the concentration range tested (up to 1 mM).
Structures can show the parent of a compound that is named as a salt.
Classification field: enter Criterion met for EC2X (median concentration that doubles the intensity of the nonsense suppression) values not below 300 µM, Criterion not met for values below it.

Incoming: Could you please find out whether CN[C@@H]1[C@@H](O)[C@@H](O[C@@H]2[C@@H](O)[C@H](O[C@H]3O[C@H]([C@@H](C)N)CC[C@H]3N)[C@@H](N)C[C@H]2N)OC[C@]1(C)O [Gentamicin C2 sulfate] has EC2X (median concentration that doubles the intensity of the nonsense suppression) that meets 300 µM or exceeds it?
Outgoing: Criterion not met

Incoming: Could you please find out whether CN[C@@H]1[C@@H](O)[C@@H](O[C@@H]2[C@@H](O)[C@H](O[C@H]3O[C@H](CO)[C@@H](O)[C@H](O)[C@H]3N)[C@@H](N)C[C@H]2N)OC[C@]1(C)O [Compound 1 sulfate] has EC2X (median concentration that doubles the intensity of the nonsense suppression) that meets 300 µM or exceeds it?
Outgoing: Criterion not met

Incoming: Could you please find out whether CN[C@@H]1[C@@H](O)[C@@H](O[C@@H]2[C@@H](O)[C@H](O[C@H]3O[C@H]([C@@H](C)NC)CC[C@H]3N)[C@@H](N)C[C@H]2N)OC[C@]1(C)O.O=S(=O)(O)O [Gentamicin C1 sulfate] has EC2X (median concentration that doubles the intensity of the nonsense suppression) that meets 300 µM or exceeds it?
Outgoing: Criterion not met

Incoming: Could you please find out whether CN[C@@H]1[C@@H](O)[C@@H](O[C@@H]2[C@@H](O)[C@H](O[C@H]3O[C@H](CO)[C@@H](O)[C@H](O)[C@H]3N)[C@@H](N)C[C@H]2N)OC[C@H]1O [Gentamicin A sulfate] has EC2X (median concentration that doubles the intensity of the nonsense suppression) that meets 300 µM or exceeds it?
Outgoing: Criterion met

Incoming: Could you please find out whether CN[C@@H]1[C@@H](O)[C@@H](O[C@@H]2[C@@H](O)[C@H](O[C@H]3O[C@H]([C@H](C)N)CC[C@H]3N)[C@@H](N)C[C@H]2N)OC[C@]1(C)O.O=S(=O)(O)O [Gentamicin C2a sulfate] has EC2X (median concentration that doubles the intensity of the nonsense suppression) that meets 300 µM or exceeds it?
Outgoing: Criterion not met
